Source listed as ChEMBL document CHEMBL3991601.

- TARGET: Phosphatidylinositol 5-phosphate 4-kinase type-2 gamma (Homo sapiens, UniProt Q8TBX8); note: in the data inactive means no Kd found up to 30 µM
- Sequence (Q8TBX8 whole entry): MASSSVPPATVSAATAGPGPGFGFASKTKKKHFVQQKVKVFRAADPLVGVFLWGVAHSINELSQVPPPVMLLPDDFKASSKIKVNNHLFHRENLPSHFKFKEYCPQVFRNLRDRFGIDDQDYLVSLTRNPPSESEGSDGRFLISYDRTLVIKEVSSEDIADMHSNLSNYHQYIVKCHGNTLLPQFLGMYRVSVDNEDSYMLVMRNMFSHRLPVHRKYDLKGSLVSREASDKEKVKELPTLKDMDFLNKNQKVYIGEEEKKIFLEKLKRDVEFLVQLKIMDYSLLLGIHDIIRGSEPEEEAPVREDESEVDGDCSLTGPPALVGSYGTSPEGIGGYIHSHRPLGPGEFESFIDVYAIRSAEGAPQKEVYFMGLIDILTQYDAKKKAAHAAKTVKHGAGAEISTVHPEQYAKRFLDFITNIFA
Calls of active or inactive are those of the source.
Pick from active, inactive when you respond.

Some solved entries appear below for comparison.
CCCS(=O)(=O)Nc1ccc(F)c(C(=O)c2c[nH]c3ncc(-c4ccc(Cl)cc4)cc23)c1F : inactive
Cc1cc2c(F)c(Oc3ncnn4cc(OC[C@@H](C)OC(=O)[C@H](C)N)c(C)c34)ccc2[nH]1 [BRIVANIB ALANINATE] : inactive
COC(=O)N[C@@H](C)CNc1nccc(-c2cn(C(C)C)nc2-c2cc(Cl)cc(NS(C)(=O)=O)c2F)n1 : inactive
N[C@@H]1CCCN(c2c(/C=C3\SC(=O)NC3=O)cccc2-c2ccccc2)C1 : inactive
Cc1cc([C@@H](C)Nc2ccccc2C(=O)O)c2nc(N3CCOCC3)cc(=O)n2c1 : inactive

Would you mind telling me which call this test gave Cc1ccc(S(=O)(=O)Nc2nc3ccccc3nc2Nc2ccc3nsnc3c2)cc1 ? inactive
